Test system: CEM cells HIV-1 protection, formazan growth assay
Test description: NCI AIDS Antiviral Assay
Result type: EC50

Solved entries (count: 5):
Value wanted: EC50 (CEM cells HIV-1 protection, formazan growth assay) of entry COc1cc2cc3c4c(cc(OC)c(OC)c4c2cc1OC)CCN3C(=O)CCC(=O)O
> 200 µM

Value wanted: EC50 (CEM cells HIV-1 protection, formazan growth assay) of entry C=C1c2nc3ccccc3n2C=C(c2ccc(Cl)cc2)N1c1ccccc1
> 200 µM

Value wanted: EC50 (CEM cells HIV-1 protection, formazan growth assay) of entry CC(=O)/C(C)=C(/C)[O-].CC(=O)/C(C)=C(/C)[O-].NCCNCCCNC(=O)c1cccc2cc3ccccc3nc12.[Co+3].[O-][Cl+3]([O-])([O-])[O-]
> 100 µM

Value wanted: EC50 (CEM cells HIV-1 protection, formazan growth assay) of entry COc1csc([C@H]2CCC3[C@@H]4CC=C5C[C@@H](O)CC[C@]5(C)C4CC[C@@]32C)n1 (stereo not given in full)
> 17.4 µM

Value wanted: EC50 (CEM cells HIV-1 protection, formazan growth assay) of entry O=c1c2c([nH]c3c1ccc1[nH]c4c(c(=O)c13)CCCC4)CCCC2
> 42.7 µM

---
Value wanted: EC50 (CEM cells HIV-1 protection, formazan growth assay) of entry CCOC(=O)C1=CN=C2C(=O)N(c3ccccc3)N(C)C2(C)C1=N (stereo not given)
> 200 µM

Value wanted: EC50 (CEM cells HIV-1 protection, formazan growth assay) of entry C=C(/C=N/N(C)C)CC1c2c(O)ccc3cccc(c23)N1S(=O)(=O)c1ccc(C)cc1 (stereo not given)
> 10.7 µM

Value wanted: EC50 (CEM cells HIV-1 protection, formazan growth assay) of entry CC12CCCN1C(=O)C1(C)CCCN1C2=O (stereo not given)
> 200 µM

Value wanted: EC50 (CEM cells HIV-1 protection, formazan growth assay) of entry CCCCOP(=O)(OCCCC)C(NS(=O)(=O)c1ccccc1)(C(=O)OCC)C(F)(F)F (stereo not given)
> 200 µM

Value wanted: EC50 (CEM cells HIV-1 protection, formazan growth assay) of entry COC(=O)CSc1nc2[nH]c(SC)c(C(N)=O)c2c(=O)n1-c1ccccc1
> 200 µM

Value wanted: EC50 (CEM cells HIV-1 protection, formazan growth assay) of entry CSC1=C(C(=O)Nc2ccc(Cl)cc2)C(N)=NC1=O
> 100 µM

Value wanted: EC50 (CEM cells HIV-1 protection, formazan growth assay) of entry Nc1ccc([N+](=O)[O-])c(S(=O)(=O)O)c1
> 1150 µM

Value wanted: EC50 (CEM cells HIV-1 protection, formazan growth assay) of entry O=C(CN1CCCCC1)CC(O)(C(F)(F)F)C(F)(F)F
> 200 µM

Value wanted: EC50 (CEM cells HIV-1 protection, formazan growth assay) of entry O=c1n(CCO)nc2n1CCCN2
> 200 µM

Value wanted: EC50 (CEM cells HIV-1 protection, formazan growth assay) of entry CCOC(=N)CCCSSc1ccc(N=[N+]=[N-])cc1
> 200 µM

The values you see were collected from PubChem BioAssay AID179.
